system: RARa homodimer (NR concentration 270 nM); assay: PBM binding z-score (relative to random genomic background probes); higher = stronger binding; sequences stand for … in GC…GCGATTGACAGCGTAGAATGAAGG
The label depends only on PBM binding z-score: y if it is at least 1, n if it is smaller.

Example results:
[
  {
    "recordSequence": "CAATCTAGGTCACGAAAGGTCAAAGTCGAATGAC",
    "group": "y"
  },
  {
    "recordSequence": "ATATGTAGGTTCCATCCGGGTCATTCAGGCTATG",
    "group": "n"
  },
  {
    "recordSequence": "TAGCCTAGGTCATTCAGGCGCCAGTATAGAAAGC",
    "group": "n"
  }
]

## Task Decide: is the reported value of PBM binding z-score for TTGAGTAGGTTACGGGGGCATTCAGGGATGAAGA equal to or greater than 1?
## Result y

## Task Does PBM binding z-score meet or surpass 1 for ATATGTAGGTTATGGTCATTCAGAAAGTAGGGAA ?
## Result y

## Task Could you please find out whether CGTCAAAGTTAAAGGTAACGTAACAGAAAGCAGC has PBM binding z-score that meets 1 or exceeds it?
## Result n

----------
test system: RARa:RXR (NR concentration 270 nM, RXRa partner concentration 90 nM); assay: PBM binding z-score (relative to random genomic background probes); higher = stronger binding; sequences stand for … in GC…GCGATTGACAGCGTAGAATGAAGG
Please enter t where PBM binding z-score is greater than or equal to 3, and f where it is lower.

## Task Check if PBM binding z-score >= 3 (inclusive). Item: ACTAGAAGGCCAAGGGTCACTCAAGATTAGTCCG
## Result t

## Task Kindly determine if PBM binding z-score recorded for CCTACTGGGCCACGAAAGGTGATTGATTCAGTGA is above or exactly 3.
## Result f

----------
tested on: PPARg:RXRa 30nM:10nM, anti-RXR (NR concentration 30 nM, RXRa partner concentration 10 nM); assay: PBM binding z-score (relative to random genomic background probes); higher = stronger binding; sequences stand for … in GC…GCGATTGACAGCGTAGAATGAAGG
Quick rule for you: PBM binding z-score at 1 or higher means TRUE, lower means FALSE.

Look over these answered cases.
[
  {
    "recordSequence": "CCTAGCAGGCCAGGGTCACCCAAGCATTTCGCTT",
    "group": "FALSE"
  },
  {
    "recordSequence": "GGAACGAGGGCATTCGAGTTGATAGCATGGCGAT",
    "group": "FALSE"
  },
  {
    "recordSequence": "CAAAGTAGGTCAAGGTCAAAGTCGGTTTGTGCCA",
    "group": "TRUE"
  },
  {
    "recordSequence": "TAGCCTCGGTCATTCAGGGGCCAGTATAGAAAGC",
    "group": "FALSE"
  },
  {
    "recordSequence": "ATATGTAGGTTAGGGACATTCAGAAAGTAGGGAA",
    "group": "TRUE"
  }
]

## Task Hi, just wondering whether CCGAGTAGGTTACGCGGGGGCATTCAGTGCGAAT shows PBM binding z-score of 1 or higher.
## Result TRUE

----------
tested on: PPARg:RXRa (NR concentration 180 nM, RXRa partner concentration 90 nM); experiment: PBM binding z-score (relative to random genomic background probes); higher = stronger binding; sequences stand for … in GC…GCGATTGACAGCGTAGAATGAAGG
PBM binding z-score by entry:
Reply with the value as a number alone.

[
  {
    "recordSequence": "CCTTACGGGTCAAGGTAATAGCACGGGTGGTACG",
    "PBM binding z-score": 4.75
  },
  {
    "recordSequence": "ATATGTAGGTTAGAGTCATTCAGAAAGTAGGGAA",
    "PBM binding z-score": 4.27
  },
  {
    "recordSequence": "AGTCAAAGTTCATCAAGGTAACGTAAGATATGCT",
    "PBM binding z-score": 6.46
  },
  {
    "recordSequence": "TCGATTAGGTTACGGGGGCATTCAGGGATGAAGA",
    "PBM binding z-score": 5.21
  },
  {
    "recordSequence": "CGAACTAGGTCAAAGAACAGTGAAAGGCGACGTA",
    "PBM binding z-score": 8.35
  }
]

## Task Write down PBM binding z-score measured for item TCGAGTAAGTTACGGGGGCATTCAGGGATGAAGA
## Result 1.06
